target: T1, human LILRB4 extracellular domain (ECD) recombinant protein (human, UniProt Q8NHJ6 22-259); test: Octet
T1 construct: extracellular domain; also called LILRB4 ECD; LILRB4-ECD
endpoint_label: koff (s⁻¹)
Record the value in s⁻¹, omitting the unit from your answer.

Tell me koff reported for h193 antibody No. 19 (h193-H3 / h193-K1) (antibody, V domains shown) VH: EVQLVESGGGLVQPGGSLRLSCAASGFSLSSSYWISWVRQAPGKGLEWIGSIDSGSVGITYYATWAKGRFTISRDNSKNTLYLQMNSLRAEDTAVYYCARHGDNWALDLWGQGTLVTVSS VL: DIQMTQSPSTLSASVGDRVTITCQASQSINSWLAWYQQKPGKAPKLLIYKASTLASGVPSRFSGSGSGTEFTLTISSLQPDDFATYYCQHGYIRGDLDNVFGGGTKVEIK
0.000294

Origin of the recorded values: patent US20210371518A1
